Assign protein stability index to each entry below.
B1: RTP4 (parent)
chain: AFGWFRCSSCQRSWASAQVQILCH

Variants of: B1
Protocol Text: protein stability index of a GFP-peptide fusion (GPS, HEK-293T) (PSI 1-6); higher = more stable;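 note: lentivirally expressed fusions sorted by FACS into six bins by GFP to DsRed ratio, PSI derived from sequencing read proportions per bin multiplied by bin number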
Condition: c terminus: a fixed tail appended

**Q:** For the variant shown here, S9C , give the reported protein stability index.
**A:** 2.09

**Q:** Endpoint output: protein stability index of F5G . Value?
**A:** 2.57

**Q:** Quick one: protein stability index of C7L ?
**A:** 4.23

**Q:** Suppose we examine the variant R12Y ; what protein stability index value has been reported?
**A:** 2.83

**Q:** State the recorded protein stability index for this entry: Q20W
**A:** 1.69

**Q:** Value lookup for protein stability index; key = C10L
**A:** 2.7

**Q:** Could you tell me which protein stability index is on file for Q11H ?
**A:** 2.43

**Q:** Bench note: what protein stability index did A15F show?
**A:** 2

**Q:** State the recorded protein stability index for this entry: Q18N
**A:** 1.71

**Q:** Entry W4P has what protein stability index?
**A:** 3.99

**Q:** Returns the measured protein stability index for the input variant. Input: Q18D
**A:** 2.22

**Q:** protein stability index for Q18H ?
**A:** 2.68

**Q:** Looking for the measured protein stability index of R12P , can you help?
**A:** 3.2

**Q:** I'd like to know its protein stability index. The variant in question is Q20H
**A:** 2.97

**Q:** # protein stability index lookup, item W14M
**A:** 1.1

**Q:** I would be grateful if you could share the reported protein stability index for G3P .
**A:** 3.37

**Q:** Can you share its protein stability index? I mean this variant: Q18S
**A:** 2.14

**Q:** Given I21F , state its recorded protein stability index.
**A:** 2.39

**Q:** Data request, read-out protein stability index, for C23Y
**A:** 2.81

**Q:** For the variant S9Q , what protein stability index is on record?
**A:** 2.35

**Q:** Look up protein stability index: Q18C
**A:** 3.51

**Q:** GET /values?readout=protein stability index&item= A1M
**A:** 2.42

**Q:** What protein stability index value was documented for this variant, F5I ?
**A:** 2.35

**Q:** Please look up its protein stability index: Q18P
**A:** 2.52

**Q:** Could you share which protein stability index value was measured for S8E ?
**A:** 1.83

**Q:** # query: protein stability index of entry I21T
**A:** 2.9

**Q:** protein stability index for L22P ?
**A:** 3.05

**Q:** Quick check: protein stability index of C10F ?
**A:** 3.06

**Q:** Name the reported protein stability index value associated with the variant W4Y
**A:** 2.37

**Q:** I am curious: what protein stability index value has been reported for F5Y ?
**A:** 4

**Q:** Report protein stability index for R6A please.
**A:** 2.65

**Q:** Item under review: H24P . Reported protein stability index?
**A:** 3.58

**Q:** Look up protein stability index: A1Y
**A:** 2.87

**Q:** I have this variant here, C7D , and I need its recorded protein stability index.
**A:** 3.61

**Q:** Using the record for W4C , report its protein stability index.
**A:** 2.77

**Q:** Recorded protein stability index for R12I , please?
**A:** 2.33

**Q:** // query protein stability index value for entry A1S
**A:** 4.21

**Q:** Param item = W4T ; retrieve measured protein stability index.
**A:** 1.47

**Q:** // protein stability index lookup, key: V19A
**A:** 1.57

**Q:** Request the reported protein stability index associated with V19K
**A:** 1.67

**Q:** Tell me the measured protein stability index of S16A , please.
**A:** 2.73

**Q:** Look up protein stability index for this variant: V19E
**A:** 2.23

**Q:** Param item = L22T ; retrieve measured protein stability index.
**A:** 1.65

**Q:** Fill blank: measured protein stability index of the variant S16N is ____.
**A:** 2.77

**Q:** Which measured protein stability index value corresponds to R12C ?
**A:** 3.76

**Q:** Requested read-out: protein stability index. Entry: S9G
**A:** 1.9
